The following compounds are listed with their measured MEC (minimum effective concentration), sGC-activating activity in the CHO reporter cell values.
# target-or-system: sGC (Rattus norvegicus, UniProt P20595)
# Construct: expressed in transfected cells; host or cells: CHO reporter cell
# Sequence (P19686 whole entry partner): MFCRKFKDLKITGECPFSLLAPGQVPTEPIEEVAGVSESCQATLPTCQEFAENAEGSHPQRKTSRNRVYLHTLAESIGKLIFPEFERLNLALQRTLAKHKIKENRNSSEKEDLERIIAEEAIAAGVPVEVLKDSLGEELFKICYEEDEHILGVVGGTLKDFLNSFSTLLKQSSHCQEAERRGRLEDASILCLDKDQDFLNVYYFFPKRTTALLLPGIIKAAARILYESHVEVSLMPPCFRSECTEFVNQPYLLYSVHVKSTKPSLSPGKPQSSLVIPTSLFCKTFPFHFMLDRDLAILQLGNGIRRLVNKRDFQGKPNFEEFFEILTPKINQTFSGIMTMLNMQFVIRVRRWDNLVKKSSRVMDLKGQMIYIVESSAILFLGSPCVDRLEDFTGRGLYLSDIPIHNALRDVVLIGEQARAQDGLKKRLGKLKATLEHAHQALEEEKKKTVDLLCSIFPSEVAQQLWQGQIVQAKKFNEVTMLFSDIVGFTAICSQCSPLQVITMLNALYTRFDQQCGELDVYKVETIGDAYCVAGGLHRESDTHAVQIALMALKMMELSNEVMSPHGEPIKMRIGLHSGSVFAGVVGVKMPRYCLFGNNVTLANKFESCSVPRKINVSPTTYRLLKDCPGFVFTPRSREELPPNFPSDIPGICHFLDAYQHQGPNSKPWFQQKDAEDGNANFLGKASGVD
# Sequence (P20595 whole entry): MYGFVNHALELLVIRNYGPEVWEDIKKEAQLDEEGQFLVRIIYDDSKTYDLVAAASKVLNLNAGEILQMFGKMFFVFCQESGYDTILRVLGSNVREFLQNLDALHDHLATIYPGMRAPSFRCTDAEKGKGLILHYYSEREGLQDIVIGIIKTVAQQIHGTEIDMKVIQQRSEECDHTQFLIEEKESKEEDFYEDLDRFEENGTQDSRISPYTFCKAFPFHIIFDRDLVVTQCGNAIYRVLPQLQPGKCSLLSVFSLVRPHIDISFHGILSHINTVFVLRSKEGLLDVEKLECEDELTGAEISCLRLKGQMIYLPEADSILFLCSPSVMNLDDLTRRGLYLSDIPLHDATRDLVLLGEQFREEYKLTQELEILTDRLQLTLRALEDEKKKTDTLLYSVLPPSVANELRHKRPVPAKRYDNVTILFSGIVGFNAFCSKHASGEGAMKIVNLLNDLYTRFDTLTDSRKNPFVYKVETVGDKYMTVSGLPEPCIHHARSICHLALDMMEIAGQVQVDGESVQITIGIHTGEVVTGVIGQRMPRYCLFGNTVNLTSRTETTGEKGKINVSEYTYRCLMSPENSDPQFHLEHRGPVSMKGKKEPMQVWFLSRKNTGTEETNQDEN
# assay-overview: Action at a recombinant guanylate cyclase reporter cell line (CHO reporter cell)
# Type: cell-based
# experimental-parameters: CHO reporter cell in vitro
Answer format: number, then unit.

The examples below pair each entry with its known result.
[2H]C([2H])([2H])OC(c1ccc(Cl)c(NC(=O)[C@H](c2ccc(Cl)cc2)[C@@H](C)C(F)(F)F)c1)C1(C(=O)O)CCC1 (single isomer, unassigned) [Example 105]; 3 nM
C=Cc1ccc(C(C(=O)Nc2cccc(CC3(C(=O)O)CC3)c2)C2CCCC2)cc1 (racemic) [Example 13]; 30 nM

### Prompt MEC (minimum effective concentration), sGC-activating activity in the CHO reporter cell lookup needed for C[C@H]([C@H](C(=O)Nc1c(Cl)ccc(CC2(C(=O)O)CC2)c1F)c1ccc(Cl)cc1)C(F)(F)F [Example 52] , thanks.
### Response 10 nM

### Prompt # get_value(readout='MEC (minimum effective concentration), sGC-activating activity in the CHO reporter cell', item= C[C@H]([C@H](C(=O)Nc1cc(C(OC2CC2)C2(C(=O)O)CC2)ccc1Cl)c1ccc(Cl)cc1)C(F)(F)F (single isomer, unassigned) [Example 114] )
### Response 3 nM

### Prompt What value of MEC (minimum effective concentration), sGC-activating activity in the CHO reporter cell has been reported for the following compound? C=Cc1ccc([C@@H](C(=O)Nc2cc(CC3(C(=O)O)CC3)ccc2F)[C@@H](C)C(F)(F)F)cc1 [Example 63]
### Response 0.3 nM

### Prompt Any idea what MEC (minimum effective concentration), sGC-activating activity in the CHO reporter cell was measured for C[C@H]([C@H](C(=O)Nc1cc(CC2(C(=O)O)CC2)ccc1Cl)c1ccc(C(F)(F)F)cc1)C(F)(F)F [Example 41] ?
### Response 1 nM

* * *

# EC50 annotations
# target-or-system: GAL4-PPARγ (Homo sapiens, UniProt P37231)
# Construct: PPARγ (amino acids 203-506)
# Sequence (P37231 203-505 limits assumed): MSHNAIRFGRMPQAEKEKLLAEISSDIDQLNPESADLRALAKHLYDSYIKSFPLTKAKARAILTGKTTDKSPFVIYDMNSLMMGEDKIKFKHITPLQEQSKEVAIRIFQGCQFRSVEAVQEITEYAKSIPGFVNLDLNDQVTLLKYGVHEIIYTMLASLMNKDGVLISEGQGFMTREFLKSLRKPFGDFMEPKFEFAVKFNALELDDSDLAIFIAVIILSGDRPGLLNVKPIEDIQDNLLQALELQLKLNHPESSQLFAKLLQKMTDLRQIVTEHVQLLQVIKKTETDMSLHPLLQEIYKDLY
# assay-overview: Cellular PPAR transactivation assay, GAL4-PPARγ chimera in CHO-K1 cells
# experimental-parameters: CHO-K1 cells, luciferase reporter, 6 h stimulation

// solved cases for EC50 follow
COc1cc([C@@H](C(=O)Nc2cc(CC3(C(=O)O)CC3)ccc2F)[C@@H](C)C(F)(F)F)ccc1Cl; 2 µM
CC(C(C(=O)Nc1cc(CC2(C(=O)O)CC2)ccc1Cl)c1ccc(CC(F)(F)F)cc1)C(F)(F)F (single isomer, unassigned); 2.3 µM
C[C@H]([C@H](C(=O)Nc1cc(CC2(C(=O)O)CC2)ccc1Cl)c1ccc(Cl)cc1)C(F)(F)F; 3 µM
C[C@H]([C@H](C(=O)Nc1cc(CC2(C(=O)O)CC2)ccc1F)c1ccc(C(C)(F)F)cc1)C(F)(F)F; > 10 µM
O=C(Nc1cc(CC2(C(=O)O)CC2)ccc1F)[C@H](c1ccc(Cl)cc1)C1CCCC1(F)F (single isomer, unassigned; (+)); > 10 µM

### Prompt I would be grateful if you could share the reported EC50 for [2H]C([2H])([2H])OC(c1ccc(Cl)c(NC(=O)[C@H](c2ccc(Cl)cc2)[C@@H](C)C(F)(F)F)c1)C1(C(=O)O)CC1 (single isomer, unassigned; (+)) .
### Response > 10 µM

### Prompt I have this molecule here, COC(c1ccc(Cl)c(NC(=O)[C@H](c2ccc(Cl)cc2)[C@@H](C)C(F)(F)F)c1)C1(C(=O)O)CC1 (single isomer, unassigned; (+)) , and I need its recorded EC50.
### Response > 10 µM

Values compiled from patent US9018258B2.
